# Experiment Description: Antioxidant activity assessed as H2O2 radical scavenging activity
# Assay type: functional
Metric Name: IC50 (µg/mL)
Report the value in µg/mL with no unit label.

Query: What value of measured IC50 is listed for `Cc1ccc(-c2nnc3sc(-c4[se]c5ncnc(Nc6ccc(F)c(Cl)c6)c5c4C)nn23)cc1` ?
Reply: 18.36

Query: Returns the measured IC50 for the input molecule. Input: `Cc1c(-c2nn3c(-c4ccc(O)cc4)nnc3s2)[se]c2ncnc(Nc3ccc(F)c(Cl)c3)c12`
Reply: 12.54

Query: Item `COc1ccc(-c2nnc3sc(-c4[se]c5ncnc(Nc6ccc(F)c(Cl)c6)c5c4C)nn23)cc1` has what recorded IC50?
Reply: 17.08
